Data provenance: patent US20210188980A1

Biological target: T1, recombinant human LAG-3-his protein (Novoprotein) (human, UniProt P18627 23-450)
T1 construct: Bought; also called huLAG-3; not shown: His tag
T1 sequence (looked up): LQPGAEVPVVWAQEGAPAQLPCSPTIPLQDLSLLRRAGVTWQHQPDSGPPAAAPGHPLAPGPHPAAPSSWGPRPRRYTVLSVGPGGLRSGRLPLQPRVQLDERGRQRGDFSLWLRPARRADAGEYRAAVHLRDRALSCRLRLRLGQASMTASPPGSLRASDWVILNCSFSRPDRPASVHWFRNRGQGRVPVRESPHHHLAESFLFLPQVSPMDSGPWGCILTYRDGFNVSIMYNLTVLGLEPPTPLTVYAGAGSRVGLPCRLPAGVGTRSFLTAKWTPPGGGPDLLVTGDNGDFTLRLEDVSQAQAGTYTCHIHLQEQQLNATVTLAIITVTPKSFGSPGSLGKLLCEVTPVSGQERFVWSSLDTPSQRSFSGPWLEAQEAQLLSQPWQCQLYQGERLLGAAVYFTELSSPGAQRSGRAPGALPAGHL
Test: BLI Octet, Ab on AHC sensor, huLAG-3-his; test group 1
Quantity measured: koff (s⁻¹)
Quick reminder: number only, in s⁻¹, skip the unit.

Req: Reported koff, binder B3-21-IgG (antibody, V domains shown, human IgG1/kappa constant domains) VH: EVQLVQSGAEVKKPGASVKVSCKASDFNIKDDYMHWVRQAPGQGLEWIGWIVPENGNTEYASKFQGRVTITADTSINTAYMELSRLRSDDTAVYYCTVYGDVWGQGTTVTVSS VL: DIQMTQSPSSLSASVGDRVTINCRAMQEISGYLSWLQQKPEGTIKRLIYAASTLDSGVPSRFSGSRSGSDYTLTISSLQPEDFATYYCLQYAYYPLTFGGGTKVEIK : ____
Resp: 0.00198

Req: Here is the next binder: B2-53-IgG (antibody, V domains shown, human IgG1/kappa constant domains; also called B82-53) VH: EVQLVQSGAEVKKPGASVKVSCKASGFNIKDDYMHWVRQAPGQGLEWIGWIVPENGNTVYASKFQGRVTITADTSINTAYMELSRLRSDDTAVYYCTVYGDYWGQGTTVTVSS VL: DIQMTQSPSSLSASVGDRVTINCRASQEISGYLSWLQQKPEGTIKRLIYAASALDSGVPSRFSGSRSGSDYTLTISSLQPEDFATYYCLQYASYPLTFGGGTKVEIK
Resp: 0.0018

Req: Here is the next binder: B3-69-IgG (antibody, V domains shown, human IgG1/kappa constant domains) VH: EVQLVQSGAEVKKPGASVKVSCKASGFNIKDDYMHWVRQAPGQGLEWIGWIVPENGNTHYASKFQGRVTITADTSINTAYMELSRLRSDDTAVYYCTVYGDYWGQGTTVTVSS VL: DIQMTQSPSSLSASVGDRVTINCRASQEISGYLSWLQQKPEGTIKRLIYEASTLDSGVPSRFSGSRSGSDYTLTISSLQPEDFATYYCLQYASYPLTFGGGTKVEIK
Resp: 0.00359
